# target system: Recombinant human HSD17B13 (Homo sapiens (Human))
# Sequence (Q7Z5P4 20-300): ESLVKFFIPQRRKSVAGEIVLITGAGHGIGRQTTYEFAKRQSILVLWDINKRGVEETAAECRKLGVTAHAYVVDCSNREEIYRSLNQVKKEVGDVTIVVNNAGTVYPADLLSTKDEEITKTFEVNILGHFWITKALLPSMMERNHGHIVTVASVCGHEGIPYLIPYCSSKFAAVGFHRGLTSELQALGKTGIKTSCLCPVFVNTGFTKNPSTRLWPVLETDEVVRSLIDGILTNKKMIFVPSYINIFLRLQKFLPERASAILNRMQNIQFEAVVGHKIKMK
# experimental details: HSD17B13 rapid-fire mass spectrometry assay (RF/MS assay)
# run parameters: inhibition of HSD17B13; LTB4 10 μM, NAD+ 0.5 mM, RT 3 h; IC50 ranges A-E
# Lookup of reported IC50 keyed by entry

{"molecule": "CCCCC[C@H]1CC[C@H](c2ccc(-c3nc(S(=O)(=O)Nc4ccc(C(=O)O)cc4OC)cs3)cc2)CC1 [Example 508]", "IC50": "< 100 nM"}
{"molecule": "COc1cc(C(=O)O)c(F)cc1NS(=O)(=O)c1csc(-c2ccc(C(F)(F)C(F)(F)F)cc2)n1 [Example 745]", "IC50": "100 to 500 nM"}
{"molecule": "O=C(O)c1ccc(NS(=O)(=O)c2cnc(-c3ccc(F)cc3)s2)c2c1OCCO2 [Example 116]", "IC50": "1000 to 100000 nM"}
{"molecule": "COc1cc(C(=O)O)ccc1NS(=O)(=O)c1csc(N2CCN(C(=O)OC(C)(C)C)CC2)n1 [Example 305]", "IC50": "1000 to 100000 nM"}
{"molecule": "COc1cc(C(=O)O)c(F)cc1NS(=O)(=O)c1cnn(-c2ccc([C@H]3CC[C@H](C(F)(F)F)CC3)cc2)c1 [Example 686]", "IC50": "100 to 500 nM"}
{"molecule": "COc1cc(C(=O)O)ccc1NS(=O)(=O)c1csc(-c2ccccc2C)n1 [Example 125]", "IC50": "500 to 1000 nM"}
{"molecule": "COc1cc(C(=O)O)c(F)cc1NS(=O)(=O)c1csc(-c2ccc(C(F)(F)F)nc2C2=CCC(C)(C)CC2)n1 [Example 561]", "IC50": "1000 to 100000 nM"}

Every entry's value here was drawn from patent US12384753B2.
